This collection of values is drawn from patent US20200222474A1.

Task for the reader: assign each of the following compounds its reported Log2 differential normalized TPM ratio compared to glucose.
- Test system: L. acidophilus NCFM
- EXPERIMENT: RNA-seq transcriptional analysis of L. acidophilus NCFM growing on plant glycosides
- Type: cell-based, Lactobacillus acidophilus
- APPLIED CONDITIONS: gene LBA1752 (Hypothetical protein)

Data request: Find the recorded Log2 differential normalized TPM ratio compared to glucose belonging to N#C[C@H](O[C@@H]1O[C@H](CO[C@@H]2O[C@H](CO)[C@@H](O)[C@H](O)[C@H]2O)[C@@H](O)[C@H](O)[C@H]1O)c1ccccc1 [Amygdalin] and report it.
Data returned: 0.8

Data request: Another compound: O=c1ccc2cc(O[C@@H]3O[C@H](CO)[C@@H](O)[C@H](O)[C@H]3O)c(O)cc2o1 [Esculin]
Data returned: 2.3

Data request: Record: OC[C@H]1O[C@@H](O[C@H]2[C@H](O)[C@@H](O)[C@@H](O)O[C@@H]2CO)[C@H](O)[C@@H](O)[C@H]1O [Lac]
Data returned: 0.8

Data request: Could you do the same for OCc1ccccc1O[C@@H]1O[C@H](CO)[C@@H](O)[C@H](O)[C@H]1O [Salicin] , please?
Data returned: 0.6
